target: glucose-6-phosphate dehydrogenase-6-phosphogluconolactonase (Plasmodium falciparum 3D7); assay: PfG6PD enzyme inhibitors, kinetic NADPH readout, dose response, orthogonal assay, biochemical, kinetic NADPH detection (AID 540269); settings: purified PfG6PD-6PGL
The source made the active and inactive calls. No rule for the calls is given here.
Respond only with the outcome that fits, drawn from active, inactive

{"SMILES INPUT": "O=C(Nc1nnc(C2CC2)s1)c1ccc(Cl)nc1", "EXPERIMENTAL TARGET": "glucose-6-phosphate dehydrogenase-6-phosphogluconolactonase (Plasmodium falciparum 3D7)", "CLASS ASSIGNMENT": "active"}

Query: Identify the outcome logged in this assay for the compound shown: `CN(CCO)c1cc(Sc2nc3ccccc3s2)c2nonc2c1[N+](=O)[O-]`
Result: inactive

Query: What was the test verdict on `N#Cc1c(C#N)c(SSc2c(C#N)c(C#N)c(N)n2-c2ccccc2)n(-c2ccccc2)c1N` ?
Result: inactive

* * *

target: glucose-6-phosphate dehydrogenase-6-phosphogluconolactonase (Plasmodium falciparum 3D7); assay: PfG6PD enzyme inhibitors, kinetic NADPH readout, dose response, orthogonal assay, biochemical, kinetic NADPH detection (AID 540269); conditions: purified PfG6PD-6PGL
Calls of active or inactive are those of the source. No rule for the calls is given here.
Your response should consist of one outcome taken from 1 (active), 0 (inactive)

Query: Per the assay record, what outcome was assigned to O=C(CSc1nc2ccccc2[nH]1)NC1CCCc2ccccc21 (centres undefined) ?
Result: 0

Query: Returns: the outcome recorded for `Cc1ccc(C(=O)/C=C/C(=O)c2ccc(C)cc2)cc1` in this assay.
Result: 0

Query: What did the test return for `CCN=c1scc(C)n1/N=C/c1ccc(O)c(O)c1O` ?
Result: 1

Query: Recorded test outcome, item `O=c1c2ccccc2sn1-c1cccc(Cl)c1`
Result: 1

* * *

target: glucose-6-phosphate dehydrogenase-6-phosphogluconolactonase (Plasmodium falciparum 3D7); experiment: PfG6PD enzyme inhibitors, kinetic NADPH readout, dose response, orthogonal assay, biochemical, kinetic NADPH detection (AID 540269); settings: purified PfG6PD-6PGL
Calls of active or inactive are those of the source. The rule behind the calls is not given here.
Give your call using only these classes: active, inactive

Solved cases (2 shown):
{"COMPOUND": "O=C1C=CC2=C3c4cc(O)c(O)cc4CC3(O)COC2=C1O (stereo not drawn)", "CLASS ASSIGNMENT": "active"}
{"COMPOUND": "CCN1/C(=C/C=C/C=C/C=C/c2sc3ccccc3[n+]2CC)Sc2ccccc21", "CLASS ASSIGNMENT": "inactive"}

Query: So what was the verdict on `O=C(CNC(=O)c1ccc(Br)cc1)NCC(=O)OCC(=O)c1ccc([N+](=O)[O-])cc1` in this test?
Result: inactive

* * *

target: glucose-6-phosphate dehydrogenase-6-phosphogluconolactonase (Plasmodium falciparum 3D7); assay: PfG6PD enzyme inhibitors, kinetic NADPH readout, dose response, orthogonal assay, biochemical, kinetic NADPH detection (AID 540269); conditions: purified PfG6PD-6PGL
Active and inactive are the calls of the source. The rule behind the calls is not given here.
Outcome field: choose from active, inactive

These recorded examples may help you get a feel for the data.
{"COMPOUND": "Cc1ccc(C(=O)Nc2nnc(S(=O)(=O)N3CCC(C)CC3)s2)cc1", "EXPERIMENTAL TARGET": "glucose-6-phosphate dehydrogenase-6-phosphogluconolactonase (Plasmodium falciparum 3D7)", "CLASS ASSIGNMENT": "active"}
{"COMPOUND": "CCNc1ccccc1CP(=O)(c1ccccc1)c1ccccc1O (stereo unspecified)", "EXPERIMENTAL TARGET": "glucose-6-phosphate dehydrogenase-6-phosphogluconolactonase (Plasmodium falciparum 3D7)", "CLASS ASSIGNMENT": "inactive"}

# ---- query compound ----
Query: I would be grateful if you could indicate the recorded call for `Cc1cc(C)c(S(=O)(=O)/N=C2/C=C(SCC(=O)O)C(=O)c3ccccc32)cc1C` .
Result: inactive

* * *

I'd be grateful if you could share measured IC50 for these entries.
target: glucose-6-phosphate dehydrogenase-6-phosphogluconolactonase (Plasmodium falciparum 3D7); assay: PfG6PD enzyme inhibitors, kinetic NADPH readout, dose response, orthogonal assay, biochemical, kinetic NADPH detection (AID 540269); details: purified PfG6PD-6PGL
Active and inactive are the calls of the source. The rule behind the calls is not given here.

Field: example entries. Status: answers known.
{"COMPOUND": "COc1cc(N2C(=O)C=CC2=O)ccc1N1C(=O)C=CC1=O", "IC50": "19.5 µM"}
{"COMPOUND": "Cc1ccc(N2CC(C(=O)OCC(=O)c3ccc([N+](=O)[O-])cc3)CC2=O)cc1 (stereo not drawn)", "IC50": "> 80 µM (inactive)"}

# context switch: different compound, same IC50
Query: // lookup IC50 for CC(NC(=O)c1sc2cc([N+](=O)[O-])ccc2c1Cl)C(C)(C)C (stereo not drawn)
Result: > 80 µM (inactive)

* * *

biological target: glucose-6-phosphate dehydrogenase-6-phosphogluconolactonase (Plasmodium falciparum 3D7); test: PfG6PD enzyme inhibitors, kinetic NADPH readout, dose response, orthogonal assay, biochemical, kinetic NADPH detection (AID 540269); conditions: purified PfG6PD-6PGL
Active and inactive are the calls of the source. The rule behind the calls is not given here.
Permitted responses: 1 = active, -1 = inactive

{"COMPOUND": "CC1(OC(=O)C2CCCC2)C(=O)C=C2C=C(c3ccsc3)N(CCc3c[nH]c4ccccc34)C=C2C1=O (centres undefined)", "CLASS ASSIGNMENT": -1}
{"COMPOUND": "C[C@]12CC[C@@H]3c4ccc(O)c(O)c4CC[C@H]3[C@@H]1CC[C@@H]2O", "CLASS ASSIGNMENT": 1}
{"COMPOUND": "O=C(CNc1ccc2c(c1)OCO2)N/N=C\\c1cn(Cc2ccccc2)c2ccccc12", "CLASS ASSIGNMENT": -1}

Query: Hi, do you know how `COc1cc(C(=O)O/N=C2/C=C(C)C(=O)C=C2C)cc(OC)c1OC` came out in this test?
Result: -1

Query: Check the results log: what was the call for `COc1cc(N=Cc2c(CO)cnc(C)c2O)cc(OC)c1OC` ?
Result: 1

Query: Called result for `Cc1ccccc1-n1sc2cc(F)ccc2c1=O`
Result: 1

Query: Called result for `COc1c(O)c(O)c2oc(-c3ccccc3)cc(=O)c2c1OC`
Result: 1

Query: Name the outcome recorded for CCC(C)N(CCNC(=O)c1ccc2c(c1)NC(=O)c1ccccc1S2)C1CCCCC1 (centres undefined) in the assay.
Result: 1

Query: Hey, what did the test say about `CCc1ccc(OCC(=O)N/N=C/c2cc([N+](=O)[O-])ccc2N2CCOCC2)cc1` ?
Result: -1

Query: For this compound, state the assay outcome: `O=C(O)c1cc(N2C(=O)C=CC2=O)cc(N2C(=O)C=CC2=O)c1`
Result: 1

Query: // outcome(item) with item = `COc1ccc(C(=O)c2c(C(F)(F)F)oc3c2C(=O)c2ccccc2C3=O)cc1OC`
Result: -1

* * *

biological target: glucose-6-phosphate dehydrogenase-6-phosphogluconolactonase (Plasmodium falciparum 3D7); assay: PfG6PD enzyme inhibitors, kinetic NADPH readout, dose response, orthogonal assay, biochemical, kinetic NADPH detection (AID 540269); details: purified PfG6PD-6PGL
The source made the active and inactive calls. No rule for the calls is given here.
Outcomes you can answer with include only these: active, inactive

{"SMILES INPUT": "O=C(CCC(=O)OCC(=O)c1ccc([N+](=O)[O-])cc1)Nc1ccccc1Cl", "CLASS ASSIGNMENT": "inactive"}
{"SMILES INPUT": "CN(C)c1ccc(C=c2c3cc([N+](=O)[O-])ccc3n3c2cc(-c2ccccc2)[n+]3C)cc1", "CLASS ASSIGNMENT": "active"}
{"SMILES INPUT": "Cc1ccc(-n2sc3cc(F)ccc3c2=O)c(C)c1", "CLASS ASSIGNMENT": "active"}

Lab note: next molecule to report on.
Query: Fill in: this test's call for `O=c1c2ccc(F)cc2sn1-c1ccccc1` is ___
Result: active

* * *

target: glucose-6-phosphate dehydrogenase-6-phosphogluconolactonase (Plasmodium falciparum 3D7); experiment: PfG6PD enzyme inhibitors, kinetic NADPH readout, dose response, orthogonal assay, biochemical, kinetic NADPH detection (AID 540269); settings: purified PfG6PD-6PGL
The source made the active and inactive calls. The rule behind the calls is not given here.
Outcomes you can answer with include only these: 1 (yes) (active), 0 (no) (inactive)

{"MOLECULE": "COc1cc(/C=N/Nc2nncn2N)ccc1OCc1c(C)no[n+]1[O-]", "CLASS ASSIGNMENT": "0 (no)"}
{"MOLECULE": "c1ccc(OCc2nnc3n2N=C(c2ccccc2)CS3)cc1", "CLASS ASSIGNMENT": "0 (no)"}
{"MOLECULE": "O=C(OCC(=O)c1ccc([N+](=O)[O-])cc1)/C(=C\\c1ccc(Cl)cc1)NC(=O)c1ccccc1", "CLASS ASSIGNMENT": "0 (no)"}
{"MOLECULE": "NC1CCc2cc(O)c(O)cc2C1 (stereo unspecified)", "CLASS ASSIGNMENT": "1 (yes)"}
{"MOLECULE": "CC(C)Cn1c([N+](=O)[O-])nc2c1c(=O)[nH]c(=O)n2C", "CLASS ASSIGNMENT": "0 (no)"}

Consider now this further molecule.
Query: Identify the outcome logged in this assay for the molecule shown: `Cc1nn(-c2ccccc2)c(Cl)c1/C=N/Nc1nc2ccccc2n1C`
Result: 0 (no)

Values were extracted from PubChem BioAssay AID540269.
